# System: HIV
# ASSAY: Antiretroviral ED50 in human H9 cells
# Type: cell-based
# TEST_SETTINGS: Human immunodeficiency virus 1
RECORDED_ENDPOINT: EC50

// query Please supply the value of reported EC50 for the item Nc1ccn([C@H]2C[C@H](CO)[C@@H](CO)O2)c(=O)n1 [compound of the invention, 2′,3′-dideoxy-3′-C-hydroxymethylcytidine]
// result ~10 nM

---

# System: HIV-1 isolates from patient plasma samples
# Format: cell-based
# TEST_SETTINGS: isolate 4 (K65R+M184V, R211S, K219E)
Assignment: determine reported FC value for the given molecules.
Answers are plain numbers.

Some entries whose results are on file:
Cc1cn([C@H]2C[C@H](N=[N+]=[N-])[C@@H](CO)O2)c(=O)[nH]c1=O ... 1.11
Nc1ccn([C@H]2C[C@H](CO)[C@@H](CO)O2)c(=O)n1 [compound of the invention, 2′,3′-dideoxy-3′-C-hydroxymethylcytidine] ... 3.88

Next item in the queue.
// query Please supply the value of reported FC value for the item Cc1cn([C@H]2C=C[C@@H](CO)O2)c(=O)[nH]c1=O
// result 0.71
